Where do these numbers come from? They come from patent EP1644414B1.

target: UV-inactivated SARS-CoV preparation (Frankfurt 1 strain) (SARS-CoV strain Frankfurt 1); test: phage ELISA, plate 3 (no phage 0.054)
Property: OD492nm; scope: individual binders
METRIC NAME: OD492nm (OD492nm)

- SC03-034 (scFv) scFv: AMAEVQLVQSGAEVKKPGESLKISCKGSGYGFITYWIGWVRQMPGKGLEWMGIIYPGDSETRYSPSFQGQVTISADKSINTAYLQWSSLKASDTAIYYCAGGSGISTPMDVWGQGTTVTVSSGTGGSGGTGSGTGGSTDVVMTQSPDSLAVSLGERATINCKSSQSILNRSNNKNYLAWYQQKPGQPPKLLIYWASTRESGVPDRFSGSGSGTDFNLTISSLQAEDVAVYYCQQYNNWPLTFGGGTKVDIKRAA: 0.802
- SC03-057 (scFv) scFv: AMAQVQLVQSGAEVKKPGSSVKVSCKASGGTFSRYAISWVRQAPGQGLEWMGRINPILNLTNYAQKFQGRVTITADKSTSTAYMEMSSLRSEDTAIYYCASPDIVVAGHASPPHYTMDVWGQGTTVTVSSGTGGSGGTGSGTGGSTDIQMTQSPSSLSASVGDRVTITCRASQGIRNDLGWYQQKPGKAPNLLIYQASALQSGVPSRFSGSESGAEFTLTISSLHPDDFATYYCQQYHDFPITFGQGTRLEIKRAA: 1.19
